Kindly state growth for each of the entries shown.
Tested on: MDA-MB-435 melanoma
Assay: NCI-60 one-dose screen, 48 h (100 = growth as untreated, 0 = no growth, -100 = all killed)
Conditions: 10 µM unless noted
Compounds without any hit were thinned out: in the full panel of roughly 83,000, 20% have a hit.
Report the figure in % without appending any unit label.

Reported growth for "COCc1c(-c2ccc(NC(=O)Nc3cc(C(F)(F)F)ccc3F)c(F)c2)c2c(N)ncnn2c1CN1CCOCC1" : what is it?
-68.8

I would be grateful if you could share the reported growth for "Fc1ccc(NCc2cn(-c3ccccc3)nc2-c2ccc(OCc3ccccc3)cc2)cc1Cl" .
102

Which growth value is on record for "CC[C@@H]1C(=O)N(C)c2cnc(Nc3ccc(C(=O)NC4CCN(C)CC4)cc3OC)nc2N1C1CCCC1" ?
2.22

Quick one: growth of "CN1[C@@H]2CC[C@H]1/C(=C\c1ccccc1)C1=C2[C@@H](c2ccccc2)C(C#N)=C(N)O1" ?
98.5

Item "COc1ccc2c(CCCCC(c3ccccc3)c3ccccc3)c3[n+](cc2c1OC)CCc1cc2c(cc1-3)OCO2" has what recorded growth?
-91.8

Consider the compound shown here: COc1ccc(-c2cc3c(C)nc(N)nc3n(C3CCC(OCCO)CC3)c2=O)cn1 (stereo unspecified) What is its recorded growth?
-18.5

I have this compound here, "COc1cc(Nc2ncc(F)c(Nc3ccc4c(n3)NC(=O)C(C)(C)O4)n2)cc(OC)c1OC" , and I need its recorded growth.
51.2

Consider the compound shown here: "COc1ccc(C(=O)N2c3ccccc3Sc3ccccc32)c(F)c1" What is its recorded growth?
-37.6

Consider the compound "CC(C)NC[C@@H](C(=O)N1CCN(c2ncnc3c2[C@H](C)C[C@H]3O)CC1)c1ccc(Cl)cc1" and give its measured growth.
68.2

Reported growth, compound "COc1ccc(CCCc2c3[n+](cc4c(OC)c(OC)ccc24)CCc2cc4c(cc2-3)OCO4)cc1" : ____
39.7

Sample "NS(=O)(=O)c1ccc(CCN2C(=O)/C(=C\c3ccc(Cl)cc3)C=C2c2ccc3ccccc3c2)cc1" — what was its growth?
97

----------
System: SF-268 CNS
Experiment: NCI-60 one-dose screen, 48 h (100 = growth as untreated, 0 = no growth, -100 = all killed)
Conditions: 10 µM unless noted
About 83,000 compounds went through this panel and 20% of them were active in at least one assay; those are over-represented in the sample as a whole.
quantity.measured: growth (%)
Just the number in %, nothing appended.

Record request: growth value, item "CO/C=C/C(=O)c1cc2cnc3c(=N)cc(NC(=O)C(C)C)c([nH]1)c23"
-47.4

Looking for the measured growth of "O=C(Nc1ccc(C(=O)Nc2ccc(C3=NCCCN3)cc2)cc1)Nc1ccc(C2=NCCCN2)cc1" , can you help?
110

Give the measured growth of "CCCNC(=O)c1cn2ncnc(Nc3cc(C(=O)NC4CC4)ccc3C)c2c1C" .
88

Find the recorded growth belonging to "Cc1ccc(C(=O)Nc2ccc(CN3CCN(C)CC3)c(C(F)(F)F)c2)cc1C#Cc1cnc2cccnn12" and report it.
-96.4

Recorded growth for "CO[C@H]1C[C@@H]2CC[C@@H](C)[C@@](O)(O2)C(=O)C(=O)N2CCCC[C@H]2C(=O)O[C@H]([C@H](C)C[C@@H]2CC[C@@H](OCCO)[C@H](OC)C2)CC(=O)[C@H](C)/C=C(\C)[C@@H](O)[C@H](OC)C(=O)[C@H](C)C[C@H](C)\C=C/C=C/C=C/1C" , please?
51.6

Consider the compound "NN1C(=O)CSC1=S" and give its measured growth.
95.9

growth for O=C(c1ccccc1)C(c1ccccc1)N1CCOCC1 (stereo not drawn) ?
99.1

If you can, please state the reported growth value of "COc1cc2c(cc1OCCCN1Cc3ccc(OCCCCC(=O)N4CCC(CCN5CCCC5)CC4)cc3C1)N=C(N)C21CCCC1" .
85.8

I'd like to know its growth. The compound in question is "Cc1cc2c(F)c(Oc3ncnn4cc(OC[C@@H](C)OC(=O)[C@H](C)N)c(C)c34)ccc2[nH]1"
74.7

What growth value was documented for this compound, "Cc1cc(N2CCOCC2)nc(N(CCNc2ccnc3cc(Cl)ccc23)Cc2cccs2)n1" ?
43.8

Using the record for "CCCCCCCCCNCCCCCCCCC" , report its growth.
79.8

Which value of growth has been reported for "C1=C\COCc2cc(ccc2OCCN2CCCC2)Nc2nccc(n2)-c2cccc(c2)COC/1" in the records?
-0.949

If you can, please state the reported growth value of "COc1cc2c(Oc3ccc(NC(=O)C4(C(=O)Nc5ccc(F)cc5)CC4)cc3F)ccnc2cc1OCCCN1CCOCC1" .
11.6

So what's the measured growth for this one? "O=c1[nH]c([C@@H]2CCCN2)nc2c1oc1ccc(Cl)cc12"
65.2

Requested read-out: growth. Entry: "COc1ccc(CCCc2c3[n+](cc4c(OC)c(OC)ccc24)CCc2cc4c(cc2-3)OCO4)cc1"
63

# growth lookup, item "O=C(/C=C/c1ccc2c(c1)OCO2)c1c(O)c2ccccc2oc1=O"
93.6

Which growth reading was recorded for the compound "CC/C=C\C[C@H]1C/C=C2/C(=O)C=C[C@@H]2C/C=C\CCCC(=O)O1" ?
-0.852

What does the data say about its growth? Entry: "COCC(=O)NC/C=C/c1ccc2ncnc(Nc3ccc(Oc4ccc(C)nc4)c(C)c3)c2c1"
52.3

Field request: growth | item: "N#Cc1c(NC(=O)c2cccs2)[n+]([O-])c2ccc(F)cc2[n+]1[O-]"
101

Please look up its growth: "c1cc[n+](Cc2c3ccccc3cc3c2ccc2ccccc23)cc1"
7.4

# get_value(readout='growth', item= "CC(C)CC(=O)Nc1n[nH]c2c1CN(C(=O)C1CCN(C)CC1)C2(C)C" )
12.1

If you can, please state the reported growth value of "Cc1cc2c(-c3nc4ccccn4c3NC3CCCCC3)c(O)c(O)cc2c(O)c1-c1c(C)cc2c(-c3nc4ccccn4c3NC3CCCCC3)c(O)c(O)cc2c1O" .
38.2

Which growth value is on record for CC1(C)NC(=O)c2[nH]c3c(Cl)c(Cl)ccc3c2C1C#N (stereo not drawn) ?
94.8

Endpoint output: growth of C=CCCCOC1[C@H](OCc2ccccc2)C(OCc2ccccc2)C(OC)O[C@@H]1CNC(=O)c1cccc(I)c1 (stereo partly drawn) . Value?
31.3

Returns the measured growth for the input compound. Input: "CCCCCCCC(=O)SCC/C=C/[C@@H]1CC(=O)NCc2cccc(n2)C2=N[C@@](C)(CS2)C(=O)N[C@@H](C(C)C)C(=O)O1"
11.1

Recorded growth of "C[C@]12O[C@H](C[C@]1(O)CO)n1c3ccccc3c3c4c(c5c6ccccc6n2c5c31)CNC4=O" , please.
-45.5

Please give the measured growth for this compound: "O=C1NC(=O)/C(=C/c2ccc3nccc(-c4ccncc4)c3c2)S1"
-11.5

growth lookup needed for "CCc1nc(C(N)=O)c(Nc2ccc(N3CCC(N4CCN(C)CC4)CC3)c(OC)c2)nc1NC1CCOCC1" , thanks.
38.3

----------
Tested on: M14 melanoma
Test: NCI-60 one-dose screen, 48 h (100 = growth as untreated, 0 = no growth, -100 = all killed)
Settings: 10 µM unless noted
Method: Growth inhibition of the M14 human tumor cell line is measured as a screen for anti-cancer activity. Cells are grown in 96 well plates and exposed to the test compound for 48 hours. Compounds are tested at a single concentration, which is 10^-5 M for most compounds. The reported endpoint is percent growth (GI% or GIPRCNT), where numbers from 0 - 100% represent growth inhibition, and numbers from -100% - 0 represent cell death. For example, a value of 40 represents 60% growth inhibition. […]
The panel holds about 83,000 compounds, 20% with a hit somewhere; the sample as a whole holds those more often.
quantity.measured: growth (%)
# value in %; strip the unit string

Give the measured growth of "O=C(N/N=C/c1ccc(Cl)cc1)c1cc(-c2cc3ccccc3o2)nn1-c1ccccc1" .
99.3

Give the measured growth of "Cc1ccc(-[n+]2c3cc(N)c(C)cc3nc3cc(C)c(Nc4ccccc4)cc32)cc1" .
-93.3

Consider the molecule shown here: "C[C@@H]1COCCN1c1cc(C2([S@](C)(=N)=O)CC2)nc(-c2ccnc3[nH]ccc23)n1" What is its recorded growth?
10.6

What value of measured growth is listed for "O=C(O)c1ccc(Nc2ncc3c(n2)-c2ccc(Cl)cc2C(c2c(F)cccc2F)=NC3)cc1" ?
57.5

----------
Tested on: SK-OV-3 ovarian
Experiment: NCI-60 one-dose screen, 48 h (100 = growth as untreated, 0 = no growth, -100 = all killed)
Details: 10 µM unless noted
This is part of a sample that, as a whole, favours compounds with a hit. Of some 83,000 tested, about 20% had one in any assay.
// classify(record): look up growth in ranges low interval = under 50%, middle interval = from 50% up to 80%, high interval = 80% and over

Which class does "CN1[C@@H]2CC[C@H]1/C(=C\c1ccccc1)C1=C2[C@@H](c2ccccc2)C(C#N)=C(N)O1" fall in?
high interval

Category lookup for the compound "Clc1ccc(/C=C/c2cc(N3CCOCC3)c3cc(Cl)c(Cl)cc3n2)cc1"
high interval

Kindly identify the class of COC[C@@H](C)n1c(C2CCOCC2)nc2c1C1C=C(OC)C(c3c(C)noc3C)=CC1N=C2 (stereo partly specified) .
low interval

Bin? "CN1CCN(c2ccc(OC(F)(F)F)c(Nc3ncc4c(n3)-c3c(c(C(N)=O)nn3CCO)CC4)c2)CC1"
low interval

Into which bin does this compound go? "Cc1cccc(Cl)c1NC(=O)c1cnc(Nc2cc(N3CCOCC3)cc(S(C)(=O)=O)c2)s1"
low interval

The entry to classify is "Cc1cc(NCC(=O)Nc2ccc(-c3nc4ccccc4s3)cc2)no1" ; which class holds it?
high interval

Quick check: band for "Cn1ccnc1C(=O)/C=C/c1ccc(CC(=O)Nc2ccc(C(F)(F)F)cc2)cc1"
middle interval

Just checking, what class would you give "CN[C@@H]1C[C@H]2O[C@@](C)([C@@H]1OC)n1c3ccccc3c3c4c(c5c6ccccc6n2c5c31)C(=O)N[C@H]4O" here?
low interval

Classify this compound: "C[C@H]1Oc2cc(cnc2N)-c2c(nn(C)c2C#N)CN(C)C(=O)c2ccc(F)cc21"
middle interval

Textbook exercise: identify the category of the compound given here, "Cn1cc(-c2ccc(F)c(C(F)(F)F)c2)nc1C1CCN(c2ncnc3[nH]ncc23)CC1" , according to its measured value.
middle interval

Would you mind sorting "COc1ccc(C(=O)N2c3ccccc3Sc3ccccc32)c(F)c1" into the appropriate category?
low interval

Where would "C/C(=N\NC(=O)Cn1c(-c2ccc(S(C)(=O)=O)cc2)nc2ccccc21)c1ccc(Cl)cc1" land among the classes by reported growth?
high interval

Could you tell me which band "Cc1cccc(NC(=O)[C@@H]2c3ccccc3C(=O)N(c3ccc(Cl)cc3)[C@H]2c2ccc(Cl)cc2)n1" belongs to?
middle interval

GET /class?item= CC(=O)C1=C(C)NC(SCc2nnc(-c3ccc(C)cc3)o2)=NC1c1ccc(F)cc1 (stereo unspecified)
high interval

Hi there! Could you help me figure out the category for "O=S1(=O)OC(c2cc(Cl)c(O)c(Br)c2)(c2cc(Cl)c(O)c(Br)c2)c2ccccc21" please?
high interval

Category lookup for the compound "C=CC(=O)N1CCC(Oc2cc3c(Nc4ccc(Cl)c(Cl)c4F)ncnc3cc2OC)CC1"
low interval

Which band does "O=S1(=O)OC(c2ccc(O)c(Cl)c2)(c2ccc(O)c(Cl)c2)c2ccccc21" fall in?
high interval

Lab note: which band did "CCN1CCN(c2cc(C)nc(N(CCCNc3ccnc4cc(Cl)ccc34)Cc3cccs3)n2)CC1" land in?
middle interval

Record CC(=O)OC1Oc2ccccc2-c2oc(=O)c(-c3cc4ccc(N(C)C)cc4oc3=O)cc21 (stereo unspecified) — which class?
low interval

Input "N#Cc1c(-c2ccc(C(F)(F)F)cc2)cc(NCC2CCS(=O)(=O)CC2)n2c1nc1ccccc12" ; output its category
high interval

Hello team, could you let me know which band the following compound falls into: "CCOc1cc2ncc(C#N)c(Nc3ccc(OCc4ccccn4)c(Cl)c3)c2cc1NC(=O)/C=C/CN(C)C"
low interval

Place this compound in its band: "Cc1c(NC(=O)OC[C@@H]2COCCN2)cn2ncnc(Nc3ccc4c(cnn4Cc4cccc(F)c4)c3)c12"
low interval

Hello team, could you let me know which band the following compound falls into: "c1ccc2c(c1)CCN(NCCN1CCCC1)C2"
high interval

Category of "O=C(NC[C@H](O)CO)c1ccncc1Nc1ccc(I)cc1F" :
low interval

Which class does COc1cc2c(cc1OCCCCCCN1CCN(c3ncnc4ccccc34)CC1)N=CC1CCCN1C2=O (stereo unspecified) fall in?
low interval

Band for the recorded growth of "CN1CCN(c2nc(C3=C(c4c[nH]c5ccccc45)C(=O)NC3=O)c3ccccc3n2)CC1" ?
high interval

Using the reported growth, which band applies to "O=C(/C=C/c1ccc2c(c1)OCO2)c1c(O)c2ccccc2oc1=O" ?
high interval
